# System Name: Tubulin
# Assay Procedure: Displacement of [3H]colchicine from tubulin
# Format: protein-complex assay, Homo sapiens
Quantity Kind: pIC50
The scale used: pIC50 is minus the common logarithm of the concentration in molar units.

input: Look up pIC50 for this compound: COc1cc(C2C(C#N)=C(N)Oc3cc(N(C)C)ccc32)cc(Br)c1OC (stereo unspecified)
output: 5.10
